test system: DFO2036; test: qHTS profiling for inhibitors of Plasmodium falciparum proliferation (AID 504749); also: nearly all actives have a fitted effect of over 60% in size; conditions: P. falciparum in erythrocytes, SYBR Green DNA, 72 h; series mostly up to 28.7 µM
Results filed as inconclusive are left out. The source made the active and inactive calls. Calls follow the shape of the dose curve; as a rule, active = well fitted inhibition curve with a large enough effect; inconclusive = small, poorly fitted or top-dose-only effect; inactive = flat fitted curve, though single readings scatter.
quantity-measured: outcome

smi: C/C=C/C=N/NC(=O)c1ccncc1
system-name: DFO2036
readout-value: inactive

smi: CC(=O)N[C@@H](CCC(=O)O)C(=O)O
system-name: DFO2036
readout-value: inactive

smi: COc1cc(C)nc(-n2nc(C)cc2OC)n1
system-name: DFO2036
readout-value: inactive

###

Tested on: CP194
Experiment: qHTS profiling for inhibitors of Plasmodium falciparum proliferation (AID 504749); also: nearly all actives have a fitted effect of over 60% in size
Conditions: P. falciparum in erythrocytes, SYBR Green DNA, 72 h; series mostly up to 28.7 µM
Method: NIH National Institute of Allergy and Infectious Diseases [NIAID] NIH Chemical Genomics Center [NCGC] […] Because mature erythrocytes lack DNA, only Plasmodium-derived DNA is detected. NCGC Assay Protocol Summary: The SYBR Green viability assay was adapted from a method described previously (Plouffe et al., 2008). […] The following morning, fluorescence intensity at 485(14) nm excitation and 535(25) nm emission wavelengths was measured on an EnVision (Perkin Elmer) plate reader. […]
Records with an inconclusive call do not appear. Active and inactive are the calls of the source. Calls follow the shape of the dose curve; as a rule, active = well fitted inhibition curve with a large enough effect; inconclusive = small, poorly fitted or top-dose-only effect; inactive = flat fitted curve, though single readings scatter.
Field 'call' accepts active, inactive

As a guide, the following entries are already answered.
molecule: O=C(O)Cc1csc(-c2ccc(Cl)cc2)n1
answer-label: inactive
//
molecule: CCOc1ccccc1OCCN[C@H](C)Cc1ccc(OC)c(S(N)(=O)=O)c1
answer-label: inactive
//
molecule: COP(=O)(OC)OC(c1ccc(Cl)cc1)P(=O)(OC)OC (stereo unspecified)
answer-label: inactive
//
molecule: COc1ccc(C(=O)c2ccccc2O)c(O)c1
answer-label: inactive
//
molecule: O=C(NC1CCN(CCc2c[nH]c3ccccc23)CC1)c1ccccc1
answer-label: inactive

Switching to the query record.
Outcome? O=C(Nc1cccc(C2=NCCN2)c1)Nc1cccc(C2=NCCN2)c1 active

###

test system: GB4; assay: qHTS profiling for inhibitors of Plasmodium falciparum proliferation (AID 504749); also: nearly all actives have a fitted effect of over 60% in size; also: potency is read from the fitted curve at half-maximal effect; conditions: P. falciparum in erythrocytes, SYBR Green DNA, 72 h; series mostly up to 28.7 µM
Records with an inconclusive call do not appear. The source made the active and inactive calls. Calls follow the shape of the dose curve; as a rule, active = well fitted inhibition curve with a large enough effect; inconclusive = small, poorly fitted or top-dose-only effect; inactive = flat fitted curve, though single readings scatter.
quantity-measured: Potency

Use the examples below as a reference point.
smi: O=C(CN1CCN(Cc2ccc3c(c2)OCO3)CC1)N1c2ccccc2Sc2ccccc21
Potency: 12 µM (active)
//
smi: CCOC(=O)c1ccc(N)cc1
Potency: inactive
//
smi: CC[C@H](c1ccc(O)cc1)[C@@H](CC)c1ccc(O)cc1
Potency: inactive
//
smi: Cc1nc(-c2ccc(Cl)cc2)oc1COC(C)(C)C(=O)O
Potency: inactive

Request: Potency, test system GB4, entry OC[C@H]1O[C@@H]2O[C@H]3[C@H](O)[C@@H](O)[C@@H](O[C@H]4[C@H](O)[C@@H](O)[C@@H](O[C@H]5[C@H](O)[C@@H](O)[C@@H](O[C@H]6[C@H](O)[C@@H](O)[C@@H](O[C@H]7[C@H](O)[C@@H](O)[C@@H](O[C@H]8[C@H](O)[C@@H](O)[C@@H](O[C@H]1[C@H](O)[C@H]2O)O[C@@H]8CO)O[C@@H]7CO)O[C@@H]6CO)O[C@@H]5CO)O[C@@H]4CO)O[C@@H]3CO inactive

Follow-up entry: CC(C)Nc1cccnc1N1CCN(C(=O)c2cc3cc(NS(C)(=O)=O)ccc3[nH]2)CC1 inactive

Try Oc1c(Cl)cc(Cl)c(Cl)c1Cc1c(O)c(Cl)cc(Cl)c1Cl next. 15.1 µM (active)

Next compound up: Nc1ccc(S(=O)(=O)Nc2cnc3ccccc3n2)cc1 inactive

What do we get for CC(=O)NCCCCCC(=O)O ? inactive

###

target: Glutathione peroxidase 1 (Homo sapiens) (UniProt P07203); assay: Primary qHTS Assay for Inhibitors of Recombinant Selenoprotein Glutathione Peroxidase 1 (GPX1) (AID 1845191); details: recombinant GPX1, GR-coupled NADPH fluorescence, 15 min; series mostly up to 48.8 µM; also: nearly all actives have a fitted effect of over 65% in size
Sequence (P07203 whole entry, looked up): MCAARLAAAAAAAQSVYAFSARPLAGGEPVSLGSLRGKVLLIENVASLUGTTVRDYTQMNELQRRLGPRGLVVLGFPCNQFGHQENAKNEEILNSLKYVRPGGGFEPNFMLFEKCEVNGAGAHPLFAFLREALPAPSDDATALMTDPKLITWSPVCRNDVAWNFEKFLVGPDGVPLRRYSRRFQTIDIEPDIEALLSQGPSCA
Records with an inconclusive call do not appear. The source made the active and inactive calls. Calls follow the shape of the dose curve; as a rule, active = well fitted inhibition curve with a large enough effect; inconclusive = small, poorly fitted or top-dose-only effect; inactive = flat fitted curve, though single readings scatter.
quantity-measured: outcome

molecule: Cc1cc(C)cc(OCC2CNC(=O)O2)c1 (configuration not stated)
outcome: inactive
--
molecule: CN(Cc1ccc(C(C)(C)C)cc1)Cc1cccc2ccccc12
outcome: inactive
--
molecule: CCc1oc2ccccc2c1C(=O)c1cc(I)c(O)c(I)c1
outcome: inactive
--
molecule: C#C[C@]1(O)CC[C@H]2[C@@H]3CCc4cc(OC)ccc4[C@H]3CC[C@@]21C
outcome: inactive
--
molecule: CO[C@H]1C=CO[C@@]2(C)Oc3c(C)c(O)c4c(O)c(c(/C=N/N5CCN(C)CC5)c(O)c4c3C2=O)NC(=O)/C(C)=C\C=C[C@H](C)[C@H](O)[C@@H](C)[C@@H](O)[C@@H](C)[C@H](OC(C)=O)[C@@H]1C
outcome: inactive

Report outcome for CCOc1ccccc1C(N)=O please. inactive

Next molecule up: NC(N)=NCc1cccc(I)c1 inactive

And then C#C[C@]1(O)CC[C@H]2[C@@H]3[C@H](C)CC4=C(CCC(=O)C4)[C@H]3CC[C@@]21C , what is it? inactive

Can you handle COc1ccc(CN(CCN(C)C)c2ncccn2)cc1 next? inactive

Repeat for the following molecule: Cc1c(-c2ccccc2)oc2c(C(=O)OCCN3CCCCC3)cccc2c1=O inactive

Entry CC(=O)O[C@]1(C(C)=O)CC[C@H]2[C@@H]3C=C(C)C4=CC(=O)CC[C@]4(C)[C@H]3CC[C@@]21C please inactive

Quick one: CCN(CC)CCOC(=O)C(Cc1cccc2ccccc12)CC1CCCO1 (configuration not stated) inactive

###

experiment: qHTS of pediatric cancer cell lines to identify multiple opportunities for drug repurposing: Primary screen for BT-37 cells (AID 1347094); conditions: BT-37 viability, CellTiter-Glo luminescence, 48 h; series mostly up to 57.3 µM
Inconclusive results are not listed. Active and inactive are the calls of the source. Calls follow the shape of the dose curve; as a rule, active = well fitted cell-killing curve with a large enough effect; inconclusive = small, poorly fitted or top-dose-only effect; inactive = flat fitted curve, though single readings scatter.
Please reply with one of these outcomes: y = active, n = inactive

Worked examples, 3 compounds total:
compound: CCCCCCCCCCCCCC[N+](C)(C)Cc1ccccc1
answer-label: y

compound: CC(C)Cc1ccc(CC(=O)O)cc1
answer-label: n

compound: C[C@@H](O)[C@H]1C(=O)N2C(C(=O)O)=C([C@H]3CCCO3)S[C@H]12
answer-label: n

Dear colleague, could you share the recorded outcome for CC(C)(C)NC[C@H](O)COc1nsnc1N1CCOCC1 when you have a moment? n

Now try CCCCCCCCCCCCCCCC(=O)O . n

One more compound: O=C1C(CCS(=O)c2ccccc2)C(=O)N(c2ccccc2)N1c1ccccc1 (stereo not drawn) n

###

biological target: Cytochrome P450 3A4 (Homo sapiens) (UniProt P08684); assay: Cytochrome P450 family 3 subfamily A member 4 (CYP3A4) small molecule antagonists: luciferase qHTS assay (AID 1645841); settings: P450-Glo CYP3A4 enzyme assay, luciferin luminescence; series mostly up to 57.4 µM; also: nearly all actives have a fitted effect of over 45% in size; also: potency is read from the fitted curve at half-maximal effect
Sequence (P08684 whole entry, looked up): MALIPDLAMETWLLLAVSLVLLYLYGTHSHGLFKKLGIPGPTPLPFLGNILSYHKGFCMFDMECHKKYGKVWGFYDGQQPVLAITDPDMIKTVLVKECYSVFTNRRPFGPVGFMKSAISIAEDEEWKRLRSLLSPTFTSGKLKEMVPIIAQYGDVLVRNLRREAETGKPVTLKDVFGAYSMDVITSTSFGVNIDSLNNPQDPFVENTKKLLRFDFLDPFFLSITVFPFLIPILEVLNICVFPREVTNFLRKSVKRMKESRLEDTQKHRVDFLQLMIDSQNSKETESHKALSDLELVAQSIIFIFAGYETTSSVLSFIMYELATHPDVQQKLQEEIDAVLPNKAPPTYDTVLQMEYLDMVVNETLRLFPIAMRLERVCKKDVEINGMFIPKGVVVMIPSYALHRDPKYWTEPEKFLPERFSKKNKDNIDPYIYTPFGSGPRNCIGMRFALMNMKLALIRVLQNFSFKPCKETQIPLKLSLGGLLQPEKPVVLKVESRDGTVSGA
Results filed as inconclusive are left out. Activity calls are given as the source filed them. Calls follow the shape of the dose curve; as a rule, active = well fitted inhibition curve with a large enough effect in the repeat runs; inconclusive = weak or mixed curves; inactive = no such curve, though single readings can be large or run the other way.
quantity-measured: Potency

molecule: CC(C)(C)NCC(O)COc1cccc2c1C[C@H](O)[C@H](O)C2 (stereo not given in full)
Potency: inactive
--
molecule: O=C1C(=O)c2ccccc2C(O)=C1C1CCC(c2ccc(Cl)cc2)CC1 (stereo not given)
Potency: inactive
--
molecule: O=C1OC2(c3ccccc31)c1cc(Br)c(O)c(Br)c1Oc1c2cc(Br)c(O)c1Br
Potency: 17.4 µM (active)
--
molecule: Cc1cn([C@H]2C[C@H](F)[C@@H](CO)O2)c(=O)[nH]c1=O
Potency: inactive

Okay, next one:
State the recorded Potency for this entry: NS(=O)(=O)Cc1noc2ccccc12 inactive

###

tested on: AS120; experiment: qHTS profiling for inhibitors of Plasmodium falciparum proliferation (AID 504749); also: nearly all actives have a fitted effect of over 60% in size; conditions: P. falciparum in erythrocytes, SYBR Green DNA, 72 h; series mostly up to 28.7 µM
Records with an inconclusive call do not appear. Active and inactive are the calls of the source. The call rests on the fitted dose curve; in most records, active means well fitted inhibition curve with a large enough effect; inconclusive means small, poorly fitted or top-dose-only effect; inactive means flat fitted curve, though single readings scatter.
Choose the fitting class; nothing outside 1 (yes) (active), 0 (no) (inactive) is accepted.

compound: C#C[C@]1(OC(C)=O)CC[C@H]2[C@@H]3CCC4=C/C(=N/O)CC[C@@H]4[C@H]3CC[C@@]21CC
system-name: AS120
answer-label: 0 (no)
//
compound: CCc1oc2ccccc2c1C(=O)c1cc(I)c(O)c(I)c1
system-name: AS120
answer-label: 0 (no)
//
compound: CCC1Nc2cc(Cl)c(S(N)(=O)=O)cc2S(=O)(=O)N1 (stereo not given)
system-name: AS120
answer-label: 0 (no)
//
compound: CC(=O)NCCCCCC(=O)O
system-name: AS120
answer-label: 0 (no)
//
compound: Nc1nc(-c2ccccc2)c(Br)c(=O)[nH]1
system-name: AS120
answer-label: 0 (no)
//
compound: CCCN(CCc1cccs1)[C@H]1CCc2c(O)cccc2C1
system-name: AS120
answer-label: 1 (yes)
//
compound: C#C[C@]1(O)CC[C@H]2[C@@H]3CCc4cc(OC)ccc4[C@H]3CC[C@@]21C
system-name: AS120
answer-label: 0 (no)
//
compound: OCCOCCN1CCN(C2=Nc3ccccc3Sc3ccccc32)CC1
system-name: AS120
answer-label: 0 (no)
//
compound: COc1cc(O)c(C(=O)c2ccccc2)cc1S(=O)(=O)O
system-name: AS120
answer-label: 0 (no)

Test call for this compound, please: OC[C@H]1O[C@@H]2O[C@H]3[C@H](O)[C@@H](O)[C@@H](O[C@H]4[C@H](O)[C@@H](O)[C@@H](O[C@H]5[C@H](O)[C@@H](O)[C@@H](O[C@H]6[C@H](O)[C@@H](O)[C@@H](O[C@H]7[C@H](O)[C@@H](O)[C@@H](O[C@H]8[C@H](O)[C@@H](O)[C@@H](O[C@H]1[C@H](O)[C@H]2O)O[C@@H]8CO)O[C@@H]7CO)O[C@@H]6CO)O[C@@H]5CO)O[C@@H]4CO)O[C@@H]3CO 0 (no)
